Cited source for all entries: patent EP4477673A1

This section presents binders with their documented M07e-hPD-1 cell proliferation ratio (%) at 1 nM values.
system name: human PD-1 (human, UniProt Q15116 25-288)
Sequence (Q15116 25-288 limits assumed): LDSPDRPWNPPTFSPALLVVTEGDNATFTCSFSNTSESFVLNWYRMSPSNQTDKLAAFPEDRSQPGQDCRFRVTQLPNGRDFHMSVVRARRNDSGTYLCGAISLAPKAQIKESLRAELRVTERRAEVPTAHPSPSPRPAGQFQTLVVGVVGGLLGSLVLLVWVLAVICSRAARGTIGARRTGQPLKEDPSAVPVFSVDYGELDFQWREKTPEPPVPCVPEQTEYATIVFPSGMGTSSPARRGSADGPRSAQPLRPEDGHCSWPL
test details: cell-based or functional assay
measured property: M07e-hPD-1 cell proliferation ratio (%) at 1 nM

[[record]]
binder = "A-PC (Fc fusion, also called positive control molecule A-PC; PD-1-IL-2v; not shown: IgG1 hinge (C220S) + Fc Knob chain (L234A, L235A, S354C, T366W, EU); D356/L358 or E356/M358 ver; IgG1 hinge (C220S) + Fc Hole chain (L234A, L235A, Y349C, T366S, L368A, Y407V; may have H435R, Y436F; EU)) chain (part 1 of 2): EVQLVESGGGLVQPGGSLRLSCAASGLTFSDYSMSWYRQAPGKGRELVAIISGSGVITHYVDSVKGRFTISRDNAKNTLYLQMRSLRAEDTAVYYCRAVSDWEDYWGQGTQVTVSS chain (part 2 of 2): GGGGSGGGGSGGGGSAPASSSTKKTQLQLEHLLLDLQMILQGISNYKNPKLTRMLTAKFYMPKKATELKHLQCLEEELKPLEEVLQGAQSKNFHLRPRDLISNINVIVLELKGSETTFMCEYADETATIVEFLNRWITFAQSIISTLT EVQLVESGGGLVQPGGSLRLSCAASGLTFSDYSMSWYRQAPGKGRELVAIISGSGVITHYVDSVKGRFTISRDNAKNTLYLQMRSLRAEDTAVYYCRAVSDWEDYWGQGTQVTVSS"
numeric_result = 112

[[record]]
binder = "A-N88D-M28 (Fc fusion, not shown: IgG1 hinge (C220S) + Fc Knob chain as in A-N88D; IgG1 hinge (C220S) + Fc Hole chain as in A-N88D) chain (part 1 of 2): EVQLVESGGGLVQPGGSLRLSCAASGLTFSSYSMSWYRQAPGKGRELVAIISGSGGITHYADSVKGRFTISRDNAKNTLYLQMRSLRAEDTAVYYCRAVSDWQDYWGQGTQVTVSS chain (part 2 of 2): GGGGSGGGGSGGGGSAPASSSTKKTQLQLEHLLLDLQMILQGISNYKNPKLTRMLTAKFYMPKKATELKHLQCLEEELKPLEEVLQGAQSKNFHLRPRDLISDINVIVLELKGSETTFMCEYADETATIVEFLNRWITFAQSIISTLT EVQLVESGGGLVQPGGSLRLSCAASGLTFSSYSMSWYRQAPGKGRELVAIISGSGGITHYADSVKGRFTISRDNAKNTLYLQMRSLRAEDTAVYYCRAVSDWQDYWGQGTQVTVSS"
numeric_result = 12.4

[[record]]
binder = "A-N88D-M26 (Fc fusion, not shown: IgG1 hinge (C220S) + Fc Knob chain as in A-N88D; IgG1 hinge (C220S) + Fc Hole chain as in A-N88D) chain (part 1 of 2): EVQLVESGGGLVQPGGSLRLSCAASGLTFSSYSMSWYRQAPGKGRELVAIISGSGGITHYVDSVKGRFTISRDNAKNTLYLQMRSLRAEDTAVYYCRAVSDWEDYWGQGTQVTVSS chain (part 2 of 2): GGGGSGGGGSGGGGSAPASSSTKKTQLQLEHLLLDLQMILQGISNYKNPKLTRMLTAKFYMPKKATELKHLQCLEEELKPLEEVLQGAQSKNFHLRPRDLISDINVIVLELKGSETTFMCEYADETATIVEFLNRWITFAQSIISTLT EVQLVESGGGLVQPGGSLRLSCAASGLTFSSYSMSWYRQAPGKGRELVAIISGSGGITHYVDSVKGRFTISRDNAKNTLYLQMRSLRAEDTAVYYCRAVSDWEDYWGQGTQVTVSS"
numeric_result = 23.2

